B1: glmS ribozyme (parent)
chain: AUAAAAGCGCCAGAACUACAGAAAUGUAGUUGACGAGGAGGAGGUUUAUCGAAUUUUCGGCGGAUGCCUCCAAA

- Variants of: B1
- test details: kcat; higher = faster cleavage; RNA array
- condition details: with glucosamine-6-phosphate
Variants at the floor of the assay were thinned out.
result type: kcat (s⁻¹)
Hi! Could you send only the number? It should be in s⁻¹, unit omitted.

Some solved cases for reference:
[
  {
    "biosequence": "AUAAAAGCGCCAGAACUACAGAAAUGUAGUUGACGAGGAGGAGGUUUAACGAAUUUUCGGCGGAUGCCUUCAAA [U49A C70U]",
    "result type": "kcat",
    "data value": "2.22e-05"
  },
  {
    "biosequence": "AUAAAAGCGCCAGAACUACAGAAAUGUAGUUGACGAGGGGGAGGUUUAUAGAAUUUUCGGCGGAUGCCUCCAAA [A39G C50A]",
    "result type": "kcat",
    "data value": "3.27e-05"
  },
  {
    "biosequence": "AUAAAAGCGCCAGAACUACAGAAAUGUAGUUGACGAGGAGGAGGUUUAUCGAAUUUUCGGCUGAUGCCACCAAA [G62U U69A]",
    "result type": "kcat",
    "data value": "2.59e-05"
  },
  {
    "biosequence": "AUAAAAGCGCCAGAACUACAGAAAUGUAGUUGACGAGGAGGAGGUCUAUCGAGUUUUCGGCGGAUGCCUCCAAA [U46C A53G]",
    "result type": "kcat",
    "data value": 0.00366
  },
  {
    "biosequence": "AUAAAAGCGCCAGAACUACAGAAAUGUAGUUGACGAGGAUGAGGUUUAUCGAUUUUUCGGCGGAUGCCUCCAAA [G40U A53U]",
    "result type": "kcat",
    "data value": 0.00278
  }
]

// AUAAAAGCGCCAAAACUACAGAAAUGUAGUUGACGAGGAGGAGGUUUAUCGAUUUUUAGGCGGAUGCCUCCAAA [G13A A53U C58A] : kcat value = 0.000493

// AUAAAAGCGCCAGAACUACAGAAAUGUAAUUAACGAGGAGGAGGUUUAUCGAAUUUUCGGCGGAUGCCUCAAAA [G29A G32A C71A] : kcat value = 0.000259

// AUAAAAGCGCCAGAACUACAGAAAUGUAAUUGACGAGGUGGAGGUUUAUCGAAUUUUCGGCGGAUGCCUCCAAA [G29A A39U] : kcat value = 0.0047

// AUAAAAGCGCCAGAACUACAGAAAUGUAGUUGACGAGGAUGCGGUUUAUCGAAUUUUCGGCGGAUGCCUCCAAA [G40U A42C] : kcat value = 1.23e-05

// AUAAAAGCGCCAGAACUACAGAAAUGUAGUUGACGAGGCGGAGGUUUAUCGGAUUUUCGGCGGAUGCCUCCAAA [A39C A52G] : kcat value = 0.000297
